Quick list: AUC per entry.
# ASSAY NAME: Pharmacokinetic data in dogs at dose of 1 mg/kg perorally, and the area under curve (AUC) was reported.
# Type: ADME, organism-based, Canis lupus familiaris
# Set-up: dose 1 mg/kg, route oral
# CONDITION CONTEXT: dog, in vivo, po

Some entries whose results are on file:
[
  {
    "COMPOUND": "Cc1cccc(N2CCN(Cc3cncn3Cc3ccc(C#N)cc3)CC2=O)c1C",
    "AUC": "1.4 µM·h"
  },
  {
    "COMPOUND": "N#Cc1ccc(Cn2cncc2CN2CCN(c3cccc(Cl)c3)C(=O)C2=O)cc1",
    "AUC": "12.5 µM·h"
  },
  {
    "COMPOUND": "N#Cc1ccc(Cn2cncc2CN2CCN(c3cccc(Cl)c3)C(=O)C2)cc1 [L-778123 FREE BASE]",
    "AUC": "5.3 µM·h"
  },
  {
    "COMPOUND": "N#Cc1ccc(Cn2cncc2CN2CCN(c3cccc(Cl)c3)CC2=O)cc1",
    "AUC": "8.58 µM·h"
  },
  {
    "COMPOUND": "CCCC[C@H]1CN(c2cccc(C)c2C)CC(=O)N1Cc1cncn1Cc1ccc(C#N)cc1",
    "AUC": "3.46 µM·h"
  },
  {
    "COMPOUND": "CCCC[C@H]1CN(c2cccc(C)c2C)C(=O)CN1Cc1cncn1Cc1ccc(C#N)cc1",
    "AUC": "0.15 µM·h"
  }
]

Query (compound): `Cc1cccc(N2CCN(Cc3cncn3Cc3ccc(C#N)cc3)C(=O)C2=O)c1C` ; field requested: AUC
4.43 µM·h

Query (compound): `CCCC[C@H]1CN(c2cccc(C)c2C)C(=O)C(=O)N1Cc1cncn1Cc1ccc(C#N)cc1` ; field requested: AUC
4.25 µM·h

* * *

# Test system: Rat1
# ASSAY NAME: Inhibition of anchorage-dependent proliferation of RAT1 v-Ha-ras-transformed cells on poly(HEMA)
# Format: functional, cell-based
# CONDITION CONTEXT: Rattus norvegicus
Quick list: pIC50 per entry.
# pIC50: negative log10 of molar concentration; output just the value

Some entries whose results are on file:
[
  {
    "SUBSTANCE SMILES": "Cc1cccc(N2CCN(Cc3cncn3Cc3ccc(C#N)cc3)CC2=O)c1C",
    "EXPERIMENTAL READOUT": "pIC50",
    "RECORDED MEASUREMENT": 4.08
  },
  {
    "SUBSTANCE SMILES": "CCCC[C@H]1CN(c2cccc(C)c2C)C(=O)C(=O)N1Cc1cncn1Cc1ccc(C#N)cc1",
    "EXPERIMENTAL READOUT": "pIC50",
    "RECORDED MEASUREMENT": 4.82
  },
  {
    "SUBSTANCE SMILES": "CCCC[C@H]1CN(c2cccc(C)c2C)CC(=O)N1Cc1cncn1Cc1ccc(C#N)cc1",
    "EXPERIMENTAL READOUT": "pIC50",
    "RECORDED MEASUREMENT": 5.60
  }
]

As a next step, examine the molecule that follows.
Query (molecule): `CCCC[C@H]1CN(c2cccc(C)c2C)C(=O)CN1Cc1cncn1Cc1ccc(C#N)cc1` ; field requested: pIC50
4.55

* * *

# ASSAY NAME: Maximal plasma concentration required for pharmacokinetic data in dogs at dose of 1 mg/kg perorally
# Format: ADME, organism-based, Canis lupus familiaris
# Parameters: dose 1 mg/kg, route oral
# CONDITION CONTEXT: dog, po
EXPERIMENTAL READOUT: Cmax (µM)
# unit: µM | format: bare number

Some entries whose results are on file:
[
  {
    "MOLECULE": "N#Cc1ccc(Cn2cncc2CN2CCN(c3cccc(Cl)c3)C(=O)C2)cc1 [L-778123 FREE BASE]",
    "EXPERIMENTAL READOUT": "Cmax",
    "RECORDED MEASUREMENT": 2.98
  },
  {
    "MOLECULE": "CCCC[C@H]1CN(c2cccc(C)c2C)CC(=O)N1Cc1cncn1Cc1ccc(C#N)cc1",
    "EXPERIMENTAL READOUT": "Cmax",
    "RECORDED MEASUREMENT": 0.96
  },
  {
    "MOLECULE": "CCCC[C@H]1CN(c2cccc(C)c2C)C(=O)CN1Cc1cncn1Cc1ccc(C#N)cc1",
    "EXPERIMENTAL READOUT": "Cmax",
    "RECORDED MEASUREMENT": 0.14
  },
  {
    "MOLECULE": "CCCC[C@H]1CN(c2cccc(C)c2C)C(=O)C(=O)N1Cc1cncn1Cc1ccc(C#N)cc1",
    "EXPERIMENTAL READOUT": "Cmax",
    "RECORDED MEASUREMENT": 1.95
  },
  {
    "MOLECULE": "Cc1cccc(N2CCN(Cc3cncn3Cc3ccc(C#N)cc3)CC2=O)c1C",
    "EXPERIMENTAL READOUT": "Cmax",
    "RECORDED MEASUREMENT": 1.06
  }
]

Query (molecule): `Cc1cccc(N2CCN(Cc3cncn3Cc3ccc(C#N)cc3)C(=O)C2=O)c1C` ; field requested: Cmax
2.29

Query (molecule): `N#Cc1ccc(Cn2cncc2CN2CCN(c3cccc(Cl)c3)CC2=O)cc1` ; field requested: Cmax
3.14

Query (molecule): `N#Cc1ccc(Cn2cncc2CN2CCN(c3cccc(Cl)c3)C(=O)C2=O)cc1` ; field requested: Cmax
3.11

* * *

# ASSAY NAME: Half life value of the compound
# Assay type: ADME
# CONDITION CONTEXT: rat
EXPERIMENTAL READOUT: half-life (min)
# unit: min | format: bare number

Some entries whose results are on file:
[
  {
    "COMPOUND": "N#Cc1ccc(Cn2cncc2CN2CCN(c3cccc(Cl)c3)CC2=O)cc1",
    "U": "min",
    "half-life": 72
  },
  {
    "COMPOUND": "CCCC[C@H]1CN(c2cccc(C)c2C)C(=O)C(=O)N1Cc1cncn1Cc1ccc(C#N)cc1",
    "U": "min",
    "half-life": 54
  }
]

Query (compound): N#Cc1ccc(Cn2cncc2CN2CCN(c3cccc(Cl)c3)C(=O)C2)cc1 [L-778123 FREE BASE] ; field requested: half-life
47.4

Query (compound): `Cc1cccc(N2CCN(Cc3cncn3Cc3ccc(C#N)cc3)CC2=O)c1C` ; field requested: half-life
30

* * *

# ASSAY NAME: Partition coefficient (logP)
# Format: physicochemical
# CONDITION CONTEXT: octanol/water
Quick list: logP per entry.
No unit in the answer, please; the number alone is enough.

[
  {
    "SUBSTANCE SMILES": "CCCC[C@H]1CN(c2cccc(C)c2C)C(=O)C(=O)N1Cc1cncn1Cc1ccc(C#N)cc1",
    "logP": 3.3
  }
]

Query (compound): `Cc1cccc(N2CCN(Cc3cncn3Cc3ccc(C#N)cc3)C(=O)C2=O)c1C` ; field requested: logP
1.11

* * *

# STUDY TARGET: Geranylgeranyl transferase type I (Homo sapiens, UniProt P49354+P53609)
# ASSAY NAME: Inhibition of human geranylgeranyltransferase-1
EXPERIMENTAL READOUT: pIC50
# pIC50: negative log10 of molar concentration; output just the value

Query (molecule): `N#Cc1ccc(Cn2cncc2CN2CCN(c3ccccc3)C(=O)C2)cc1` ; field requested: pIC50
5.06

* * *

# ASSAY NAME: Partition coefficient (logP)
# Assay type: physicochemical
# CONDITION CONTEXT: octanol/water
EXPERIMENTAL READOUT: logP
No unit in the answer, please; the number alone is enough.

[
  {
    "COMPOUND": "N#Cc1ccc(Cn2cncc2CN2CCN(c3cccc(Cl)c3)CC2=O)cc1",
    "RECORDED MEASUREMENT": 2.51
  },
  {
    "COMPOUND": "N#Cc1ccc(Cn2cncc2CN2CC(=O)N(c3ccccc3)CC2=O)cc1",
    "RECORDED MEASUREMENT": 0.55
  },
  {
    "COMPOUND": "Cc1cccc(N2CCN(Cc3cncn3Cc3ccc(C#N)cc3)CC2=O)c1C",
    "RECORDED MEASUREMENT": 2
  },
  {
    "COMPOUND": "N#Cc1ccc(Cn2cncc2CN2CCN(c3cccc(Cl)c3)C(=O)C2)cc1 [L-778123 FREE BASE]",
    "RECORDED MEASUREMENT": 2.11
  },
  {
    "COMPOUND": "N#Cc1ccc(Cn2cncc2CN2CCN(c3ccccc3)C(=O)C2=O)cc1",
    "RECORDED MEASUREMENT": 0.46
  },
  {
    "COMPOUND": "N#Cc1ccc(Cn2cncc2C(=O)N2CCN(c3cccc(Cl)c3)CC2)cc1",
    "RECORDED MEASUREMENT": 2.79
  },
  {
    "COMPOUND": "N#Cc1ccc(Cn2cncc2CN2CCN(c3cccc(Cl)c3)C(=O)C2=O)cc1",
    "RECORDED MEASUREMENT": 1.24
  }
]

As a next step, examine the compound that follows.
Query (compound): `N#Cc1ccc(Cn2cncc2CN2CCN(c3ccccc3)C(=O)C2)cc1` ; field requested: logP
1.32
